Measured values drawn from patent US20260174875A1 for this set.

# System name: T1, human amylin-3(a) receptor (human, UniProt P30988 25-474; O60896 24-148)
# T1 sequence (looked up) 1: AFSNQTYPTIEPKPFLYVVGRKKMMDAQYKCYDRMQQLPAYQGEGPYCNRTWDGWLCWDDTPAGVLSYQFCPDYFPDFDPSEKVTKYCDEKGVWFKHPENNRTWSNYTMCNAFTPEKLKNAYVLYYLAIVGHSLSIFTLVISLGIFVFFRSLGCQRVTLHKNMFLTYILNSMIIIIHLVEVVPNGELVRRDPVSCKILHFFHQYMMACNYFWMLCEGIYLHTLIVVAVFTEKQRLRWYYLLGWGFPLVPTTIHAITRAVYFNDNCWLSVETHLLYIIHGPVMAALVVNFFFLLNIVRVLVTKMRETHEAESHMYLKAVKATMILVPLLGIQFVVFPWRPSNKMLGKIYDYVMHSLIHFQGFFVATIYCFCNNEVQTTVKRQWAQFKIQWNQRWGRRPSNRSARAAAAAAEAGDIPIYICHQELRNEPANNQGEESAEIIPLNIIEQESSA
# T1 sequence (looked up) 2: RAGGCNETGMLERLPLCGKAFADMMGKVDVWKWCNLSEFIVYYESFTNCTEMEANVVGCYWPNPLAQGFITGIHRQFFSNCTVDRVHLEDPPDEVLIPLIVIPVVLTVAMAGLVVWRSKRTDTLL
# Test protocol: cell-based or functional assay
Numbered stars: 1 amine (or outer) side, 2 acyl side, 3 side chain; on linkers, the order of the positions; unused ones are H or OH. Square brackets hold non-standard residues; d marks the D form. Side chains are listed from the residue outwards. * marks the point of attachment. C20 diacid = O=C(O)CCCCCCCCCCCCCCCCCCC(=O)*; γGlu = O=C(O)[C@H](CCC(=O)[*:2])N[*:1]; Chem. 27 = not defined here; AEEA = NCCOCCOCC(=O)O; Aib = CC(C)(N)C(=O)O
Note to self: values exactly at 8 pM are rule met. So hAMYR3 Potency, no HSA, EC50 [pM] at or above 8 pM is rule met, below is rule not met.

INSERT INTO assay_data (binder, class_assignment) VALUES
  ('Compound 179 (reading uncertain) peptide: Y[Aib]EGTFTSDYSILLEEIAAREFIEWLLAGGPSSGAGASHLSTAQTQRLSAELHK(Chem. 27)LATEPRTETGSGSP-NH2', 'rule met'),
  ('Compound 183 (reading uncertain) peptide: Y[Aib]EGTFTSDYSK(Chem. 27)LLEEIAAREFIEWLLAGGPSSGAGASELSTAQLGRLSAELHQLATLPRTETGSGSP-NH2', 'rule not met'),
  ('Compound 181 (reading uncertain) peptide: Y[Aib]EGTFTSDYSILLEEIAAREFIEWLLAGGPSSEAGASQLSTAQTQRLSAELHK(Chem. 27)LATLPRTETGSGSP-NH2', 'rule met'),
  ('Compound 210 (also: further groups not given here) peptide: Y[Aib]EGTFTSDYSILLEEQAAREFIEWLLAGGPSSGAGQAPGQAPGASHLSTAQTQRLSAELHKLATLPRTETGSGSP-NH2', 'rule not met'),
  ('Compound 115 (peptide) peptide: Y[Aib]EGTFTSDYSILLEEQAAREFIEWLLAGGPSSGAGQAPGQAPGASHLSTAQTQRLSAELHK([AEEA-AEEA-γGlu-C20 diacid])LATLPRTETGSGSP-NH2', 'rule not met'),
  ('Compound 189 (reading uncertain) peptide: Y[Aib]EGTFTSDYSILLEEIAAREFIEWLLAGGPSSGAGEAPGEAPGASHLSTAQTQRLSAELHK(Chem. 27)LATLPRTETGSGSP-NH2', 'rule met'),
  ('Compound 219 (also: further groups not given here) peptide: Y[Aib]EGTFTSDYSILLEEIAAREFIEWLLAGGPSSGAGQAPGQAEGASHLSTAQTQRLSAELHKLATLPRTETGSGSP-NH2', 'rule not met'),
  ('Compound 176 (reading uncertain) peptide: Y[Aib]EGTFTSDYSILLEEIAAREFIEWLLAGGPSSGAGASELSTAQTQRLSAELHK(Chem. 27)LATLPRTETGSGSP-NH2', 'rule met');
